Biological target: Hpk1 (Homo sapiens)
Assay: SLP76 phosphorylation assay (SLP76 pS376 in lysates of HEK293 cells engineered to express Hpk1 and SLP76)
Type: cell-based
Conditions: HEK293 cells expressing Hpk1 and SLP76, 4 hours incubation; read-out: pSLP76 (HEK293) (pIC50) (converted)
value-kind: IC50 (nM)

## Task Could you tell me which IC50 is on file for `Nc1ncc(-c2ccc(C3CCOCC3)c([C@@H]3CCCN3)c2)cc1-c1cc(F)ncc1Cl` ?
## Result 1860

## Task Now the molecule `COc1cnccc1-c1cc(-c2ccc(C3CCOCC3)c([C@@H]3CCCN3)c2)cnc1N`
## Result 891

## Task Also need `CC1(C)COc2ncc(-c3cc(-c4ccc(C5CCOCC5)c([C@@H]5CCCN5)c4)cnc3N)cc21` , thanks.
## Result 1100

[I] Nc1ncc(-c2ccc(C3CCOCC3)c([C@@H]3CCCN3)c2)cc1-c1cnn2c1CCCC2
[II] C[C@@H]1CCN[C@@H]1c1cc(-c2cnc(N)c(-c3ccncc3)c2)ccc1C1CCOCC1 (racemic)
## Task Given I and given II , which shows the smaller recorded IC50? Provide the label of your selected option as the answer.
## Result II

----------
Target: full-length human Hpk1 (Homo sapiens)
Construct: A recombinant fusion protein consisting of full-length human Hpk1; GST (N)
Sequence (Q92918 whole entry, the tested form may be a part): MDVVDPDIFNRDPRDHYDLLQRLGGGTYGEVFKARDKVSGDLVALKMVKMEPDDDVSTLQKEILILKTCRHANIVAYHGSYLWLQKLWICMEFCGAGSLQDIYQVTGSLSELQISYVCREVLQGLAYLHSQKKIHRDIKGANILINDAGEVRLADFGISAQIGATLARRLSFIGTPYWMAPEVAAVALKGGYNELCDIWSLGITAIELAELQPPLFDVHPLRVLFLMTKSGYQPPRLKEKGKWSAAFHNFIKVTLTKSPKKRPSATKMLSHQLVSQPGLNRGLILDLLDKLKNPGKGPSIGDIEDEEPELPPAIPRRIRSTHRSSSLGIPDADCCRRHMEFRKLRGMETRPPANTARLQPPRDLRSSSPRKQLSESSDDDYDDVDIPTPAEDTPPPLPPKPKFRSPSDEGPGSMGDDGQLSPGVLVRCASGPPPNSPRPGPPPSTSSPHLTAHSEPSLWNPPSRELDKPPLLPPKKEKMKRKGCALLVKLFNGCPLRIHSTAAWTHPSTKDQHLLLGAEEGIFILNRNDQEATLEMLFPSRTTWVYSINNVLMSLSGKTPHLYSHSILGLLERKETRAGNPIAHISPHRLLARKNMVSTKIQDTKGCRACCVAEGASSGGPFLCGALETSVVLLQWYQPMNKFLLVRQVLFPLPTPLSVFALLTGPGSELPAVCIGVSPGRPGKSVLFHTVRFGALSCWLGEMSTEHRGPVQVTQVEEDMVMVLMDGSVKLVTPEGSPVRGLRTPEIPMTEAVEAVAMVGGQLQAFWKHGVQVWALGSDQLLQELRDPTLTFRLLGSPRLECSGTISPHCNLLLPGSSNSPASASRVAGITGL
Experiment: HPK1 kinase assay (ADP Glo Kinase Assay)
Assay type: biochemical
Conditions: full-length human GST-Hpk1, ADP Glo, 75 μM ATP; read-out: Hpk1 biochemical (pIC50) (converted)
value-kind: IC50 (nM)

Example compounds with recorded IC50:
## Task State the recorded IC50 for this entry: `Cc1cc(-c2cc(-c3ccc(C4CCOCC4)c([C@@H]4CCCN4)c3)cnc2N)on1`
## Result 2.34

## Task Now consider `Nc1ncc(-c2ccc(C3CCOCC3)c([C@@H]3CCCN3)c2)nc1-c1ccnc(F)c1` and answer again.
## Result 21.4

## Task What do we get for Nc1ncc(-c2ccc(C3CCOCC3)c([C@H]3CSCCN3)c2)cc1-c1ccnc(F)c1 (single isomer, unassigned) [Co. 103b] ?
## Result 603

## Task Now give it for `Nc1ncc(-c2ccc(C3CCOCC3)c([C@@H]3CCCN3)c2)cc1-c1ccnnc1` too.
## Result 14.5

## Task Now try `Nc1ncc(-c2ccc(C3CCOCC3)c([C@@H]3COCCN3)c2)cc1-c1ccnc(F)c1` .
## Result 8.71

[1] COc1cc(-c2cc(-c3ccc(C4CCOCC4)c(CN(C)C)c3)cnc2N)ccn1
[2] Nc1ncc(-c2ccc(C3CCOCC3)c([C@@H]3C[S@@+]([O-])CCN3)c2)cc1-c1ccnc(F)c1 (single isomer, unassigned) [Co. 15c]
## Task Of 1 and 2 , which carries the smaller reported IC50 figure? State the label of the item chosen.
## Result 1

----------
Molecular target: full-length human Hpk1 (Homo sapiens)
Construct: A recombinant fusion protein consisting of full-length human Hpk1; GST (N)
Assay: HPK1 kinase assay (ADP Glo Kinase Assay)
Assay type: biochemical
Details: full-length human GST-Hpk1, ADP Glo, 75 μM ATP; read-out: Hpk1 biochemical (pIC50) (converted)
value-kind: IC50 (nM)

## Task Quick one: IC50 for `Nc1ncc(-c2ccc(C3CCOCC3)c([C@@H]3CCCN3)c2)nc1-c1ccncc1` ?
## Result 24.5

[A] Nc1ncc(-c2ccc(C3CCOCC3)c([C@@H]3CCCN3)c2)cc1-c1cn[nH]c1
[B] Nc1ncc(-c2ccc(C3CCOCC3)c(-c3cnn[nH]3)c2)cc1-c1ccncc1
[C] Nc1ncc(-c2ccc(C3CCSCC3)c([C@@H]3CCCN3)c2)cc1-c1ccnc(F)c1
## Task // ascending sort on recorded IC50 Lab note: record answer as labels in requested order.
## Result A, C, B
(A: 1.02 nM, C: 21.4 nM, B: 575 nM)

----------
Target: Hpk1 (Homo sapiens, UniProt Q92918)
Experiment: SLP76 phosphorylation assay (SLP76 pS376 in lysates of HEK293 cells engineered to express Hpk1 and SLP76)
Type: cell-based
Details: HEK293 cells expressing Hpk1 and SLP76, 4 hours incubation; read-out: pSLP76 (HEK293) (pIC50) (converted)
Description: SLP76 Phosphorylation Assay Hpk1 inhibition in cells was determined by detection of SLP76 phosphorylation at S376 in lysates from HEK293 cells engineered to express Hpk1 and SLP76. […] Wells were washed 4 times with base buffer, 150 μl Read Buffer T was added to each well, and the plates were read in a Mesoscale plate reader (MSD). […]
value-kind: IC50 (µM)

[A] Nc1ncc(-c2ccc(C3CCOCC3)c([C@@H]3CCCN3)c2)cc1-c1cncnc1
[B] Nc1ncc(-c2ccc(C3CCOCC3)c([C@@H]3CCCN3)c2)cc1-c1ccncc1
## Task Lowest IC50? choose A or B Answer by quoting the chosen item's label.
## Result B

----------
Target: Hpk1 (Homo sapiens, UniProt Q92918)
Test: SLP76 phosphorylation assay (SLP76 pS376 in lysates of HEK293 cells engineered to express Hpk1 and SLP76)
Format: cell-based
Conditions: HEK293 cells expressing Hpk1 and SLP76, 4 hours incubation; read-out: pSLP76 (HEK293) (pIC50) (converted)
value-kind: IC50 (nM)

[1] Nc1ncc(-c2ccc(C3CCOCC3)c(CN3CCCC3)c2)cc1-c1ccncc1 [Co. 108]
[2] Nc1ncc(-c2ccc(C3CCOCC3)c([C@@H]3CCCN3)c2)cc1-c1cccnc1 [Co. 4]
[3] COc1cc(-c2cc(-c3ccc(C4CCOCC4)c(CN(C)C)c3)cnc2N)ccn1 [Co. 71]
[4] Nc1ncc(-c2ccc(C3CCOCC3)c([C@@H]3CCCN3)c2)cc1-c1cc(F)ncc1F [Co. 31]
[5] Nc1ncc(-c2ccc(C3CCOCC3)c([C@@H]3CCCN3)c2)cc1-c1ccncc1Cl [Co. 30]
## Task Consider the compounds listed above. Rank them by IC50 in ascending numerical order. Output spec: a listing of the labels in the requested order.
## Result 5, 4, 3, 2, 1

[A] Nc1ncc(-c2ccc(C3CC4(COC4)C3)c([C@@H]3CCCN3)c2)cc1-c1ccnc(F)c1 [Co. 52]
[B] Cn1cc(-c2nc(-c3ccc(C4CCOCC4)c([C@@H]4COCCN4)c3)cnc2N)cn1 [Co. 84]
## Task Two entries are listed, A and B . Which one carries the higher IC50? Let me know the label of the one you choose.
## Result A
(A: 851 nM, B: 479 nM)

----------
Target: Hpk1 (Homo sapiens, UniProt Q92918)
Assay: SLP76 phosphorylation assay (SLP76 pS376 in lysates of HEK293 cells engineered to express Hpk1 and SLP76)
Assay type: cell-based
Settings: HEK293 cells expressing Hpk1 and SLP76, 4 hours incubation; read-out: pSLP76 (HEK293) (pIC50) (converted)
value-kind: IC50 (nM)

## Task Any idea what its IC50 is? The compound is Nc1ncc(-c2ccc(C3CCOCC3)c([C@H]3CC4(CC4)CN3)c2)cc1-c1ccncc1 (single isomer, unassigned)
## Result 6920

## Task Same again, this time with `N#Cc1cc(-c2ccc(C3CCOCC3)c([C@@H]3COCCN3)c2)cnc1N`
## Result 851

## Task Another compound to look at: `CN(C)Cc1cc(-c2cnc(N)c(-c3ccncn3)c2)ccc1C1CCOCC1`
## Result 2570

## Task What would you report for `Cn1cc(-c2nc(-c3ccc(C4CCOCC4)c([C@@H]4CCCN4)c3)cnc2N)cn1` ?
## Result 617

## Task Next record, please: `C[C@H]1CN[C@H](c2cc(-c3cnc(N)c(-c4ccnc(F)c4)c3)ccc2C2CCOCC2)CO1`
## Result 575

[I] CC(CO)CNC(=O)c1cc(-c2ccc(C3CCOCC3)c(CN(C)C)c2)cnc1N (centres unmarked)
[II] Nc1ncc(-c2ccc(C3CCOCC3)c([C@@H]3COCCN3)c2)cc1-c1ccncc1 [Co. 80a]
[III] Nc1ncc(-c2ccc(C3CCCCC3)c([C@@H]3CCCN3)c2)cc1-c1ccnc(F)c1
[IV] N#Cc1cc(-c2cc(-c3ccc(C4CCOCC4)c([C@@H]4CCCN4)c3)cnc2N)ccn1
[V] Nc1ncc(-c2ccc(C3CCOCC3)c([C@@H]3CC4(CC4)CN3)c2)cc1-c1ccncc1 (single isomer, unassigned)
## Task Could you please sort these 5 entries by IC50 from high to low? Thanks in advance for listing the labels in the requested order.
## Result I, IV, III, II, V
(I: 5890 nM, IV: 3980 nM, III: 1290 nM, II: 851 nM, V: 347 nM)

----------
Target: full-length human Hpk1 (Homo sapiens)
Construct: A recombinant fusion protein consisting of full-length human Hpk1; GST (N)
Assay: HPK1 kinase assay (ADP Glo Kinase Assay)
Type: biochemical
Settings: full-length human GST-Hpk1, ADP Glo, 75 μM ATP; read-out: Hpk1 biochemical (pIC50) (converted)
value-kind: IC50 (nM)

Some compounds with known IC50 results, for comparison:
## Task # query: IC50 of entry `Cc1cc(-c2ccc(C3CCOCC3)c([C@@H]3COCCN3)c2)cnc1N`
## Result 120

## Task Field entry: `Nc1ncc(-c2ccc(C3=CCOC3)c([C@@H]3CCCN3)c2)cc1-c1ccnc(F)c1`
## Result 41.7

## Task Next: `Nc1ncc(-c2ccc(C3CCOCC3)c(CN3CCC(F)(F)C3)c2)cc1-c1ccncc1`
## Result 832

## Task Please do the same for `CC(=O)N1CC=C(c2ccc(-c3cnc(N)c(-c4ccnc(F)c4)c3)cc2[C@@H]2CCCN2)CC1` as well.
## Result 24.5

## Task Param item: C[C@@H]1COC[C@H](c2cc(-c3cnc(N)c(-c4ccncc4)c3)ccc2C2CCOCC2)N1 (single isomer, unassigned) [Co. 83b]
## Result 5750

## Task Let us now turn to `Nc1ncc(-c2ccc(C3CCOCC3)c([C@@H]3CCCN3)c2)cc1-c1nccs1`
## Result 3.16

[a] Nc1ncc(-c2ccc(C3COC3)c([C@@H]3CCCN3)c2)cc1-c1ccnc(F)c1
[b] Nc1ncc(-c2ccc(C3CCCCC3)c([C@@H]3CCCN3)c2)cc1-c1ccnc(F)c1
[c] Nc1ncc(-c2ccc(N3CCOCC3)c(-c3nnc[nH]3)c2)cc1-c1ccncc1
[d] Nc1ncc(-c2ccc(C3CCOCC3)c(C3CCCN3)c2)cc1-c1cc[n+]([O-])cc1 (stereo not shown)
## Task Order the records, beginning with the lowest IC50 and ending with the highest. Reply: labels, ordered per the request.
## Result b, d, a, c

[1] Nc1ncc(-c2ccc(C3CCOCC3)c([C@@H]3CCCN3)c2)cc1-c1ccncc1
[2] CN(C)Cc1cc(-c2cnc(N)c(-c3ccnc(NCCCO)c3)c2)ccc1C1CCOCC1
## Task Compare the recorded IC50 of 1 and 2 ; state which is larger. Provide the label of your selected option as the answer.
## Result 2
(2: 41.7 nM, 1: 9.77 nM)

All figures here come from patent US12492194B2.
